Assay: Abuse potential main study: plasma pharmacokinetics after a single oral dose
Format: in vivo, human
Conditions: human, plasma, po, 30 mg, 30 mg single oral dose; read-out: Tmax, median
Procedure: Safety and tolerability endpoints included the frequency and severity of AEs and SAEs, the change from baseline in clinical laboratory assessments, vital signs, and ECG, and suicidality assessed by the Columbia-Suicide Severity Rating Scale (C-SSRS). During the treatment phase, PK measures were assessed predose and at multiple time points, from 0.5 to 24 hours after dosing. Blood samples collected for plasma analyses were kept frozen (approximately −70° C. to −80° C.) until analysis. […]
value type: Tmax (h)

compound	unit	numeric result
C[C@@]1(O)CC[C@H]2[C@H](CC[C@@H]3[C@@H]2CC[C@]2(C)[C@@H](C(=O)Cn4cc(C#N)cn4)CC[C@@H]32)C1 [Compound (1)]	h	5.1

Just for reference, patent US20240216395A1 is where these values come from.
